tested on: MDA-MB-231 cells; test: MTT cytotoxicity in MDA-MB-231 cells; type: cell-based; settings: Homo sapiens, MDA-MB-231, normoxia 96 h, read-out: IC50 MDA-MB-231 Normoxia
Catalogue of compounds with associated pIC50
Quick note: pIC50 values are minus log10 of concentrations in mol/L.

Sample "Cc1ccc2c(OCc3cn(CCCO[C@H]4O[C@@H]5O[C@@]6(C)CC[C@H]7[C@H](C)CC[C@@H]([C@H]4C)[C@@]57OO6)nn3)cc(=O)oc2c1" — what was its pIC50?
4.41

Sample "C[C@H]1[C@@H](OCCCn2cc(COc3cc(=O)oc4ccccc34)nn2)O[C@@H]2O[C@@]3(C)CC[C@H]4[C@H](C)CC[C@@H]1[C@@]24OO3" — what was its pIC50?
4.17

Sample "Cc1ccc2oc(=O)cc(OCc3cn(CCCO[C@H]4O[C@@H]5O[C@@]6(C)CC[C@H]7[C@H](C)CC[C@@H]([C@H]4C)[C@@]57OO6)nn3)c2c1" — what was its pIC50?
4.66

Sample "Cc1ccc2c(OCc3cn(CCO[C@H]4O[C@@H]5O[C@@]6(C)CC[C@H]7[C@H](C)CC[C@@H]([C@H]4C)[C@@]57OO6)nn3)cc(=O)oc2c1C" — what was its pIC50?
4.96

Others:
Sample "Cc1cc(C)c2oc(=O)cc(OCc3cn(CCO[C@H]4O[C@@H]5O[C@@]6(C)CC[C@H]7[C@H](C)CC[C@@H]([C@H]4C)[C@@]57OO6)nn3)c2c1" — what was its pIC50?
4.85

----------
Experiment: MTT cytotoxicity in N9 cells
Format: cell-based, murine
Settings: mouse, N9 microglial cells, cytotoxic activity
Protocol: The anti-neuroinflammatory activity of DCH was evaluated and then the representative compounds were selected for the further study. […] In addition, in order to exclude the death influence, MTT-IC20 of all the compounds were measured. […] When the adherent cells reached 80% confluence, the culture medium was discarded. […] Absorbance was measured at 570 nm with a microplate reader (Synergy-HT, BioTek Instruments, Winooski, VT, USA). […]
observedProperty: IC20

Example entries and their recorded answers appear below.
Sample "Cc1ccc2c(OCc3cn(CCCO[C@H]4O[C@@H]5O[C@@]6(C)CC[C@H]7[C@H](C)CC[C@@H]([C@H]4C)[C@@]57OO6)nn3)cc(=O)oc2c1C" — what was its IC20?
6.53 µM

Sample "Cc1ccc2oc(=O)cc(Cn3cc(CO[C@H]4O[C@@H]5O[C@@]6(C)CC[C@H]7[C@H](C)CC[C@@H]([C@H]4C)[C@@]57OO6)nn3)c2c1" — what was its IC20?
> 10 µM

Others:
Sample "C[C@H]1[C@@H](OCCc2cn(Cc3cc(=O)oc4cc(O)ccc34)nn2)O[C@@H]2O[C@@]3(C)CC[C@H]4[C@H](C)CC[C@@H]1[C@@]24OO3" — what was its IC20?
> 10 µM

----------
system: HCT-116 cells; assay: MTT cytotoxicity in HCT-116 cells; assay type: cell-based; conditions: Homo sapiens, HCT-116, hypoxia 24 h then normoxia 72 h, read-out: IC50 HCT-116 Hypoxia
Catalogue of compounds with associated IC50

Example entries and their recorded answers appear below.
Write down the reported IC50 of "Cc1ccc2c(Cn3cc(CO[C@H]4O[C@@H]5O[C@@]6(C)CC[C@H]7[C@H](C)CC[C@@H]([C@H]4C)[C@@]57OO6)nn3)cc(=O)oc2c1" , test system: HCT-116 cells.
> 100 µM

Write down the reported IC50 of "Cc1cc(C)c2c(Cn3cc(CO[C@H]4O[C@@H]5O[C@@]6(C)CC[C@H]7[C@H](C)CC[C@@H]([C@H]4C)[C@@]57OO6)nn3)cc(=O)oc2c1" , test system: HCT-116 cells.
> 100 µM

Would you kindly look at the next entry?
Write down the reported IC50 of "Cc1cc(C)c2c(OCc3cn(CCO[C@H]4O[C@@H]5O[C@@]6(C)CC[C@H]7[C@H](C)CC[C@@H]([C@H]4C)[C@@]57OO6)nn3)cc(=O)oc2c1" , test system: HCT-116 cells.
> 100 µM
